System: PC3 PD-L1 overexpressing and PD-L1-mock tumors
EXPERIMENT: PET imaging in NMRI-nude mice bearing PC3 PD-L1 and PC3 mock tumors
Format: in vivo
EXPERIMENTAL CONTEXT: tracer only, 1-2 hour p.i., i.v., mice
Would you mind telling me the reported SUVmax PC3 mock tumor of each entry?
Answers are plain numbers.

Below: 3 compounds and their reported SUVmax PC3 mock tumor.
COMPOUND: Cc1c(COc2cc(OCc3cncc(S(C)(=O)=O)c3)c(CN[C@@H](CS(=O)(=O)O)C(=O)NCCS(=O)(=O)O)cc2Br)cccc1-c1cccc(OCc2cn(CCCN3CCN(C(=O)[C@H](CS(=O)(=O)O)NC(=O)CCCC(=O)NC45CNCCNCC(N)(CNCCNC4)CNCCNC5)CC3)nn2)c1C.[64Cu+2] [[^64Cu]Cu-16]
TARGET SYSTEM: PC3 PD-L1 overexpressing and PD-L1-mock tumors
QUANTITATIVE READOUT: 0.78

COMPOUND: Cc1c(COc2cc(OCc3cncc(S(C)(=O)=O)c3)c(CN[C@@H](CS(=O)(=O)O)C(=O)NCCS(=O)(=O)O)cc2Br)cccc1-c1cccc(OCc2cn(CCCN3CCN(C(=O)[C@H](CS(=O)(=O)O)NC(=O)CCCC(=O)NC45CNCCNCC(NC(=O)CCCC(=O)N[C@@H](CS(=O)(=O)O)C(=O)N6CCN(CCCn7cc(COc8cccc(-c9cccc(COc%10cc(OCc%11cncc(S(C)(=O)=O)c%11)c(CN[C@@H](CS(=O)(=O)O)C(=O)NCCS(=O)(=O)O)cc%10Br)c9C)c8C)nn7)CC6)(CNCCNC4)CNCCNC5)CC3)nn2)c1C.[64Cu+2] [[^64Cu]Cu-17]
TARGET SYSTEM: PC3 PD-L1 overexpressing and PD-L1-mock tumors
QUANTITATIVE READOUT: 0.31

COMPOUND: Cc1c(COc2cc(OCc3cncc(S(C)(=O)=O)c3)c(CN[C@@H](CS(=O)(=O)O)C(=O)NCCS(=O)(=O)O)cc2Br)cccc1-c1cccc(OCc2cn(CCCN3CCN(C(=O)[C@H](CS(=O)(=O)O)NC(=O)CC[C@H](C(=O)[O-])N4CCN(CC(=O)[O-])CCN(CC(=O)[O-])CC4)CC3)nn2)c1C.[64Cu+2] [[^64Cu]Cu-14]
TARGET SYSTEM: PC3 PD-L1 overexpressing and PD-L1-mock tumors
QUANTITATIVE READOUT: 0.86

Exercise: What measured SUVmax PC3 mock tumor goes with Cc1c(COc2cc(OCc3cncc(S(C)(=O)=O)c3)c(CN[C@@H](CS(=O)(=O)O)C(=O)NCCS(=O)(=O)O)cc2Br)cccc1-c1cccc(OCc2cn(CCCN3CCN(C(=O)[C@H](CS(=O)(=O)O)NC(=O)CN4CCCN5CCN(CCCN(CC(=O)[O-])CC5)CC4)CC3)nn2)c1C.[64Cu+2] [[^64Cu]Cu-15] ?
Solution: 0.61

====

Tested on: PC3 PD-L1 overexpressing and PD-L1-mock tumors
EXPERIMENT: PET imaging in NMRI-nude mice bearing PC3 PD-L1 and PC3 mock tumors
Assay type: in vivo
EXPERIMENTAL CONTEXT: tracer only, 24-25 hour p.i., i.v., mice
MEASURED QUANTITY: SUVmax kidney

Below: 3 compounds and their reported SUVmax kidney.
COMPOUND: Cc1c(COc2cc(OCc3cncc(S(C)(=O)=O)c3)c(CN[C@@H](CS(=O)(=O)O)C(=O)NCCS(=O)(=O)O)cc2Br)cccc1-c1cccc(OCc2cn(CCCN3CCN(C(=O)[C@H](CS(=O)(=O)O)NC(=O)CCCC(=O)NC45CNCCNCC(NC(=O)CCCC(=O)N[C@@H](CS(=O)(=O)O)C(=O)N6CCN(CCCn7cc(COc8cccc(-c9cccc(COc%10cc(OCc%11cncc(S(C)(=O)=O)c%11)c(CN[C@@H](CS(=O)(=O)O)C(=O)NCCS(=O)(=O)O)cc%10Br)c9C)c8C)nn7)CC6)(CNCCNC4)CNCCNC5)CC3)nn2)c1C.[64Cu+2] [[^64Cu]Cu-17]
SUVmax kidney: 2.40 ± 0.60
//
COMPOUND: Cc1c(COc2cc(OCc3cncc(S(C)(=O)=O)c3)c(CN[C@@H](CS(=O)(=O)O)C(=O)NCCS(=O)(=O)O)cc2Br)cccc1-c1cccc(OCc2cn(CCCN3CCN(C(=O)[C@H](CS(=O)(=O)O)NC(=O)CCCC(=O)NC45CNCCNCC(N)(CNCCNC4)CNCCNC5)CC3)nn2)c1C.[64Cu+2] [[^64Cu]Cu-16]
SUVmax kidney: 0.90
//
COMPOUND: Cc1c(COc2cc(OCc3cncc(S(C)(=O)=O)c3)c(CN[C@@H](CS(=O)(=O)O)C(=O)NCCS(=O)(=O)O)cc2Br)cccc1-c1cccc(OCc2cn(CCCN3CCN(C(=O)[C@H](CS(=O)(=O)O)NC(=O)CN4CCCN5CCN(CCCN(CC(=O)[O-])CC5)CC4)CC3)nn2)c1C.[64Cu+2] [[^64Cu]Cu-15]
SUVmax kidney: 0.48

Exercise: What measured SUVmax kidney goes with Cc1c(COc2cc(OCc3cncc(S(C)(=O)=O)c3)c(CN[C@@H](CS(=O)(=O)O)C(=O)NCCS(=O)(=O)O)cc2Br)cccc1-c1cccc(OCc2cn(CCCN3CCN(C(=O)[C@H](CS(=O)(=O)O)NC(=O)CC[C@H](C(=O)[O-])N4CCN(CC(=O)[O-])CCN(CC(=O)[O-])CC4)CC3)nn2)c1C.[64Cu+2] [[^64Cu]Cu-14] ?
Solution: 0.63

====

Would you mind telling me the reported SUVmax liver of each entry?
System: PC3 PD-L1 overexpressing and PD-L1-mock tumors
EXPERIMENT: PET imaging in NMRI-nude mice bearing PC3 PD-L1 and PC3 mock tumors
Type: in vivo
EXPERIMENTAL CONTEXT: tracer only, 4-5 hour p.i., i.v., mice
Text: Male athymic NMRI-nude mice (Rj:NMRI-Foxn1nu, Janvier Labs, Le Genest-Saint-Isle, France) aged between 8 to 16 weeks were employed for the study. […] The growth of tumors was systematically monitored three times per week through caliper measurements, and animals with tumor sizes above 7 mm were included in the subsequent experiments. […] Three-dimensional volumes of interest were defined using fixed thresholding at 35–40% of the maximal measured intensity. […]

Below: 3 compounds and their reported SUVmax liver.
COMPOUND: Cc1c(COc2cc(OCc3cncc(S(C)(=O)=O)c3)c(CN[C@@H](CS(=O)(=O)O)C(=O)NCCS(=O)(=O)O)cc2Br)cccc1-c1cccc(OCc2cn(CCCN3CCN(C(=O)[C@H](CS(=O)(=O)O)NC(=O)CN4CCCN5CCN(CCCN(CC(=O)[O-])CC5)CC4)CC3)nn2)c1C.[64Cu+2] [[^64Cu]Cu-15]
SUVmax liver: 1.41
--
COMPOUND: Cc1c(COc2cc(OCc3cncc(S(C)(=O)=O)c3)c(CN[C@@H](CS(=O)(=O)O)C(=O)NCCS(=O)(=O)O)cc2Br)cccc1-c1cccc(OCc2cn(CCCN3CCN(C(=O)[C@H](CS(=O)(=O)O)NC(=O)CC[C@H](C(=O)[O-])N4CCN(CC(=O)[O-])CCN(CC(=O)[O-])CC4)CC3)nn2)c1C.[64Cu+2] [[^64Cu]Cu-14]
SUVmax liver: 1.54 ± 0.19
--
COMPOUND: Cc1c(COc2cc(OCc3cncc(S(C)(=O)=O)c3)c(CN[C@@H](CS(=O)(=O)O)C(=O)NCCS(=O)(=O)O)cc2Br)cccc1-c1cccc(OCc2cn(CCCN3CCN(C(=O)[C@H](CS(=O)(=O)O)NC(=O)CCCC(=O)NC45CNCCNCC(NC(=O)CCCC(=O)N[C@@H](CS(=O)(=O)O)C(=O)N6CCN(CCCn7cc(COc8cccc(-c9cccc(COc%10cc(OCc%11cncc(S(C)(=O)=O)c%11)c(CN[C@@H](CS(=O)(=O)O)C(=O)NCCS(=O)(=O)O)cc%10Br)c9C)c8C)nn7)CC6)(CNCCNC4)CNCCNC5)CC3)nn2)c1C.[64Cu+2] [[^64Cu]Cu-17]
SUVmax liver: 14.4 ± 1.26

Read the next record carefully.
Exercise: What measured SUVmax liver goes with Cc1c(COc2cc(OCc3cncc(S(C)(=O)=O)c3)c(CN[C@@H](CS(=O)(=O)O)C(=O)NCCS(=O)(=O)O)cc2Br)cccc1-c1cccc(OCc2cn(CCCN3CCN(C(=O)[C@H](CS(=O)(=O)O)NC(=O)CCCC(=O)NC45CNCCNCC(N)(CNCCNC4)CNCCNC5)CC3)nn2)c1C.[64Cu+2] [[^64Cu]Cu-16] ?
Solution: 2.49

====

Tested on: PC3 PD-L1 overexpressing and PD-L1-mock tumors
EXPERIMENT: PET imaging in NMRI-nude mice bearing PC3 PD-L1 and PC3 mock tumors
Assay type: in vivo
EXPERIMENTAL CONTEXT: tracer only, 4-5 hour p.i., i.v., mice
Would you mind telling me the reported SUVmax PC3 mock tumor of each entry?
Answers are plain numbers.

Below: 3 compounds and their reported SUVmax PC3 mock tumor.
COMPOUND: Cc1c(COc2cc(OCc3cncc(S(C)(=O)=O)c3)c(CN[C@@H](CS(=O)(=O)O)C(=O)NCCS(=O)(=O)O)cc2Br)cccc1-c1cccc(OCc2cn(CCCN3CCN(C(=O)[C@H](CS(=O)(=O)O)NC(=O)CC[C@H](C(=O)[O-])N4CCN(CC(=O)[O-])CCN(CC(=O)[O-])CC4)CC3)nn2)c1C.[64Cu+2] [[^64Cu]Cu-14]
SUVmax PC3 mock tumor: 0.50

COMPOUND: Cc1c(COc2cc(OCc3cncc(S(C)(=O)=O)c3)c(CN[C@@H](CS(=O)(=O)O)C(=O)NCCS(=O)(=O)O)cc2Br)cccc1-c1cccc(OCc2cn(CCCN3CCN(C(=O)[C@H](CS(=O)(=O)O)NC(=O)CN4CCCN5CCN(CCCN(CC(=O)[O-])CC5)CC4)CC3)nn2)c1C.[64Cu+2] [[^64Cu]Cu-15]
SUVmax PC3 mock tumor: 0.44

COMPOUND: Cc1c(COc2cc(OCc3cncc(S(C)(=O)=O)c3)c(CN[C@@H](CS(=O)(=O)O)C(=O)NCCS(=O)(=O)O)cc2Br)cccc1-c1cccc(OCc2cn(CCCN3CCN(C(=O)[C@H](CS(=O)(=O)O)NC(=O)CCCC(=O)NC45CNCCNCC(NC(=O)CCCC(=O)N[C@@H](CS(=O)(=O)O)C(=O)N6CCN(CCCn7cc(COc8cccc(-c9cccc(COc%10cc(OCc%11cncc(S(C)(=O)=O)c%11)c(CN[C@@H](CS(=O)(=O)O)C(=O)NCCS(=O)(=O)O)cc%10Br)c9C)c8C)nn7)CC6)(CNCCNC4)CNCCNC5)CC3)nn2)c1C.[64Cu+2] [[^64Cu]Cu-17]
SUVmax PC3 mock tumor: 0.50

Read the next record carefully.
Exercise: What measured SUVmax PC3 mock tumor goes with Cc1c(COc2cc(OCc3cncc(S(C)(=O)=O)c3)c(CN[C@@H](CS(=O)(=O)O)C(=O)NCCS(=O)(=O)O)cc2Br)cccc1-c1cccc(OCc2cn(CCCN3CCN(C(=O)[C@H](CS(=O)(=O)O)NC(=O)CCCC(=O)NC45CNCCNCC(N)(CNCCNC4)CNCCNC5)CC3)nn2)c1C.[64Cu+2] [[^64Cu]Cu-16] ?
Solution: 0.37
